- Tested on: A549
- experiment-description: NCI tumour cell line growth inhibition, 48 h
Activity calls are given as the source filed them. Rule as the data show it: active = GI50 up to about 1.1 µM and inactive = higher.
A collection of compounds and their measured GI50

# annotated cases, reported GI50 shown
{"compound": "COc1cc2c(cc1OC)C(=O)Cc1ccc(OC)c(OC)c1CN(C)CC2", "parameter": "GI50", "readout-value": "> 100 µM (inactive)"}
{"compound": "Nc1ccccc1/N=C/c1cc2cc([N+](=O)[O-])ccc2s1", "parameter": "GI50", "readout-value": "8.47 µM (inactive)"}
{"compound": "FC(F)(Sc1ccccc1)c1nc2ccccc2o1", "parameter": "GI50", "readout-value": "30.1 µM (inactive)"}
{"compound": "CCCCCCCCCCCCCC(=O)CC(=O)c1c(O)cccc1O", "parameter": "GI50", "readout-value": "51.1 µM (inactive)"}
{"compound": "CC1(c2ccccc2)CC(c2ccccc2)=NO1 (stereo not drawn)", "parameter": "GI50", "readout-value": "> 100 µM (inactive)"}
{"compound": "COc1ccc(Cn2c(=O)c(OS(=O)(=O)C(F)(F)F)c(C)c3cc4ccccc4cc32)cc1", "parameter": "GI50", "readout-value": "> 100 µM (inactive)"}
{"compound": "COCP1(=S)OC(C)CCN1C(C)C (stereo not drawn)", "parameter": "GI50", "readout-value": "> 100 µM (inactive)"}
{"compound": "Cc1cc(=O)n2c3c(c4c(cc13)c(CO)cc(=O)n4C)OC2", "parameter": "GI50", "readout-value": "36.1 µM (inactive)"}
{"compound": "CC1C2=C(CCCC2=O)N(c2ccc(Cl)cc2)C2=C1C(=O)CCC2", "parameter": "GI50", "readout-value": "88.5 µM (inactive)"}
{"compound": "O=C(O)CCN(CCCN(CCC(=O)O)CCC(=O)O)CCC(=O)O", "parameter": "GI50", "readout-value": "> 100 µM (inactive)"}

Please examine the following record next.
Q) Entry under review: CC(C)C(N)=O [ISOBUTYRAMIDE] . Reported GI50?
A) > 5000 µM (inactive)
